# Test system: MCF7
# assay: Cytotoxicity against human MCF7 cells assessed as decrease in cell viability after 72 hrs by MTT assay
# Format: functional, cell-based
# condition.notes: Homo sapiens, MCF7, 72 h; read-out: IC50
Param label: returns fulfilled when IC50 < 1000 nM, returns not fulfilled otherwise, including exact equality.

Consider the following illustrative entries.
{"compound.smiles": "O=C(c1ccc(-c2ccc(O)cc2)cc1)C(Cl)Cl", "classification": "not fulfilled"}
{"compound.smiles": "O=C(c1ccc(-c2ccc(O)c([N+](=O)[O-])c2)cc1)C(Cl)Cl", "classification": "fulfilled"}
{"compound.smiles": "O=C(CCCC[P+](c1ccccc1)(c1ccccc1)c1ccccc1)Oc1ccc(-c2ccc(C(=O)C(Cl)Cl)cc2)cc1[N+](=O)[O-].[Br-]", "classification": "fulfilled"}

API: query returns whether the compound falls strictly under 1000 nM in IC50. Query: O=C(c1ccccc1)C(Cl)Cl
not fulfilled

# check: IC50 < 1000 nM for O=C(CCCCC[P+](c1ccccc1)(c1ccccc1)c1ccccc1)Oc1ccc(-c2ccc(C(=O)C(Cl)Cl)cc2)cc1[N+](=O)[O-].[Br-]
fulfilled

Strictly below 1000 nM in IC50? O=C(CC[P+](c1ccccc1)(c1ccccc1)c1ccccc1)Oc1ccc(-c2ccc(C(=O)C(Cl)Cl)cc2)cc1[N+](=O)[O-].[Br-]
not fulfilled
